# System: SK-MEL-2 melanoma
# Test Details: NCI tumour cell line growth inhibition, 48 h
The compounds listed here are annotated with their TGI.

>>> print(df.to_string())
                                   compound  result_value
0  COc1ccc2c(c1)O/C(=C\c1cccc(OCC(=O)Nc3nc(C)c(C)s3)c1)C2=O       3.22 µM
1  CCc1nc2cc(/C=C/C(=O)NO)ccc2c(=O)n1CCc1ccc(OC)cc1       24.9 µM

Data request: Would you kindly share the measured TGI for COc1ccc2c(c1OC)C(=O)O[C@@H]2[C@H]1c2c(cc3c(c2OC)OCO3)CCN1C ?
Data returned: > 100 µM

Data request: Field entry: CC(=O)n1nc(-c2ccc3ccccc3c2)nc1C
Data returned: > 100 µM

Data request: Field entry: CCn1c(CSc2nc(-c3ccccc3)c(-c3ccccc3)[nH]2)n[nH]c1=S
Data returned: > 100 µM

Data request: Field entry: CC(=O)c1c(O)n(-c2ccc(C)cc2)c(=O)c2c(N)n[nH]c12
Data returned: > 100 µM

Data request: Field entry: Cc1c(C)c2c(c(C)c1OCC(=O)O)CC[C@@](C)(CCC[C@@H](C)CCC[C@@H](C)CCCC(C)C)O2
Data returned: 142 µM

Data request: Field entry: C=Cc1c(C)c2cc3[nH]c(cc4nc(cc5nc(cc1[nH]2)C(C)=C5CCC(=O)N(CC)CC)C(CCC(=O)N(CC)CC)=C4C)c(C)c3C=C
Data returned: > 100 µM

Data request: Field entry: CC[n+]1c(/C=C/c2ccc(N(CCCl)CCCl)cc2)ccc2cc(I)ccc21
Data returned: 1.39 µM

Data request: Field entry: Cc1cn2c(/C=N/N=C(N)N)c(-c3ccncc3)nc2s1
Data returned: > 100 µM

Data request: Field entry: COc1ccc(C2C3=C(COC3=O)OC(C)(C)Oc3cc4c(cc32)OCO4)cc1OC (stereo unspecified)
Data returned: > 100 µM

====

The compounds listed here are annotated with their TGI.
# Tested on: HCC-2998 colon
# Test Details: NCI tumour cell line growth inhibition, 48 h

Illustrative cases are given below, each with its answer.
In [3]: df
Out[3]:
                                   compound   target_entity  recorded_endpoint  result_value
0  C/C(O)=C(\C=NC(=S)c1ccncc1)C(=O)Nc1ccccc1C  HCC-2998 colon                TGI      > 100 µM
1  CCNC(=S)NNC(=O)CSc1nc2ccc(I)cc2c(=O)n1Cc1ccccc1  HCC-2998 colon                TGI     > 85.7 µM
2  COc1cc2nc(-c3cccc4cccnc34)nc(NC3CCN(Cc4ccccc4)CC3)c2cc1OC  HCC-2998 colon                TGI       3.16 µM
3  C#C[C@]1(O)CC[C@H]2[C@@H]3CCC4=C/C(=N/OC(=O)c5cccc6c(=O)c7ccccc7[nH]c56)CCC4[C@H]3CC[C@@]21CC (stereo not given in full)  HCC-2998 colon                TGI     > 90.9 µM
4                    Nc1nc2c(ccc3ccccc32)s1  HCC-2998 colon                TGI      > 100 µM

Data request: Give TGI (HCC-2998 colon) of the following compound: CN1CCCN2CCN(C)CCCN(CC1)CC2
Data returned: > 100 µM

Data request: Field entry: C=C1C(=O)O[C@H]2[C@H]1CC/C(COC(=O)NCCc1cccc(OC)c1)=C\CC[C@@]1(C)O[C@@H]21
Data returned: 3.29 µM

Data request: Field entry: CCN(CC)c1nc(NC2CCCCC2)c2nc(N(CC)CC)nc(NC3CCCCC3)c2n1
Data returned: > 100 µM

Data request: Field entry: C[C@H](NC(=O)c1c(C(F)F)nn(C)c1Oc1cccc(C(F)(F)F)c1)c1ccc(C(=O)O)cc1
Data returned: > 100 µM

Data request: Field entry: CC1=C(C#N)C(/C=C(\Cl)c2ccc(F)cc2)C(C#N)=C(C)N1
Data returned: > 100 µM
